From: paper PMC9545781

assay: Open-label clinical pharmacokinetic study of oral XBD173 and etifoxine in healthy volunteers (plasma LC-MSMS); format: in vivo, human; conditions: human, plasma, po, 90 mg, 90 mg XBD173 single oral dose; participant 4

compound-string: CCN(Cc1ccccc1)C(=O)Cn1c(=O)n(C)c2cnc(-c3ccccc3)nc21
units: h
Tmax: 3

###

biological target: TSPO (Homo sapiens, UniProt P30536); assay: Competition radioligand binding with [3H]PK11195 in human brain membranes; settings: read-out: Mean Ki; human brain tissue, high affinity binders (HABs), n = 4; [3H]PK11195 0.3 nM
Sequence (P30536 2-169): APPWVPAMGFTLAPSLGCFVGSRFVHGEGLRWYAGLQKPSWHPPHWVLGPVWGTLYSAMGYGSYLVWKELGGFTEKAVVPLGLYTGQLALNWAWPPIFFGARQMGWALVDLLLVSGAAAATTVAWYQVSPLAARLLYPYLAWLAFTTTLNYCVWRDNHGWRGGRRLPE
endpoint: Ki (µM)

molecule: CCNC1=Nc2ccc(Cl)cc2C(C)(c2ccccc2)O1 (stereo not shown) [etifoxine]
numeric-value: 7.6
